Tested on: CAKI-1 renal
assay-explanation: NCI-60 one-dose screen, 48 h (100 = growth as untreated, 0 = no growth, -100 = all killed)
condition-details: 10 µM
Compounds without any hit were thinned out: in the full panel of roughly 83,000, 20% have a hit. Calls of active or inactive are those of the source. Rule for the calls: active = growth percent below 10; inactive = the rest.
Field: growth. Provide a value for each of the compounds that follow.

Examples with answers:
O=C(c1ccc(Cl)cc1)C1[C@H](c2ccc(Br)cc2)[C@@H](c2ccccc2)NC12C(=O)Nc1ccc(Br)cc12 (some centres not stated)
-93.9% (active)
Nc1nc(Nc2ccccc2)nn1Cc1c(Cl)cccc1Cl
27.9% (inactive)
CN(C)c1cccc2c(S(=O)(=O)Nc3cccc(-c4csc(NC(=O)CCCCCN5CCN(c6cc7c(cc6F)C(=O)N(C6CCC(=O)NC6=O)C7=O)CC5)n4)c3)cccc12 (configuration not stated)
79.4% (inactive)
Cc1nc2c(cnn2-c2ccccc2)c(=O)n1-c1ccc(NC(=O)c2ccc(F)cc2)cc1
65.7% (inactive)
CCN1CCN(Cc2ccc(C(=O)Nc3cccc(-c4cn(-c5ccc6oc(=O)ccc6c5)nn4)c3)cc2C(F)(F)F)CC1
8.59% (active)
N#Cc1c(NC(=O)c2ccc(C(O)(C(F)(F)F)C(F)(F)F)cc2)sc2c1CCC(=O)C2
-68.9% (active)

Give growth for each of the items listed below.
1. Cc1ccc(-c2cc(C(=O)N=Nc3c(O)[nH]c4ccc(Br)cc34)c3ccccc3n2)cc1
2. C=C[C@H]1[C@H](O[C@@H]2OC(CO)[C@@H](O)[C@H](O)C2OC(=O)c2c(O)cc(O)cc2-c2cccc(O)c2)OC=C2C(=O)OCC[C@H]21 (some centres not stated)
3. Cc1noc2c(Cc3ccccc3)nn(CC(=O)N/N=C/c3ccc(Cl)cc3)c(=O)c12
4. O=C1Nc2cc(-c3ccc(NC(=O)c4cccs4)cc3)ccc2/C1=C/c1ccc[nH]1
5. N#Cc1ccc(-c2nn(-c3ccc(C(=O)O)cc3)cc2CNc2ccc(Cl)cc2)cc1
6. CC(=O)c1ccc(NC(=O)NCn2c(=O)[nH]c3ccccc3c2=O)cc1
7. O=C(CSc1nnc(-c2ccc3nc(-c4ccccc4)[nH]c3c2)o1)Nc1ccc(Cl)cc1
8. CCN1CCN(c2ccc(NC(=O)Nc3ccc(-c4cc(C(=O)NC(C)C)c5ncccc5n4)cc3)cc2C(F)(F)F)CC1

Output:
1. 73.6% (inactive)
2. 93.9% (inactive)
3. 38.5% (inactive)
4. 89.7% (inactive)
5. 71.2% (inactive)
6. 91.2% (inactive)
7. 30.5% (inactive)
8. -95.2% (active)

====

Tested on: UO-31 renal
assay-explanation: NCI-60 one-dose screen, 48 h
condition-details: 10 µM
The panel holds about 83,000 compounds, 20% with a hit somewhere; the sample as a whole holds those more often. Active and inactive are the calls of the source. The calls were made as follows: active = growth percent below 10; inactive = the rest.
Respond with a class label; see active, inactive

Some solved entries appear below for comparison.
O=C(c1ccc(Cl)cc1)C1[C@H](c2ccc(Br)cc2)[C@@H](c2ccccc2)NC12C(=O)Nc1ccc(Br)cc12 (some centres undefined)
active
O=C(/C=C/Nc1ccc(F)cc1F)c1ccc2c(c1)Nc1ccccc1S2
inactive

Task: For "CC1(C)[C@@H](NCO)CC[C@]2(C)[C@H]3C(=O)C=C4[C@@H]5C[C@](C)(CO)CC[C@]5(C)CC[C@@]4(C)[C@]3(C)CC[C@@H]12" , what call appears in the results of this test?
Output: inactive

Task: For "O=C(CSc1nnc(-c2c[nH]c3ccccc23)n1-c1ccccc1)c1ccccc1" , what call appears in the results of this test?
Output: inactive

Task: For CC[C@]12C=CCN3CC[C@@]4(c5cc(C#CCNc6ccc(C)c(Nc7nccc(-c8cccnc8)n7)c6)c(OC)cc5N(C)[C@H]4[C@@](O)(C(=O)OC)[C@@H]1OC(C)=O)C32 (some centres undefined) , what call appears in the results of this test?
Output: inactive

Hello, the source for this data is PubChem BioAssay (NCI), in case you need it.
